measure: melting point

Example entries begin here.
* O=C(O)Cc1c(C(=O)c2cc(Cl)ccn2)[nH]c2ccc(Cl)cc12 | 243 to 244 °C
* O=C(O)Cc1c(C(=O)c2ccc(Cl)cn2)[nH]c2cc(Cl)ccc12 | 242 to 244 °C
* Cc1cnc(C(=O)c2[nH]c3cc(Cl)ccc3c2CC(=O)O)s1 | 225 to 226 °C
* Cc1ccnc(C(=O)c2[nH]c3ccc(Cl)cc3c2CC(=O)O)c1 | 230 to 231 °C
* O=C(O)Cc1c(C(=O)c2ccc(Cl)c(F)c2)[nH]c2cc(Cl)ccc12 | 179 to 182 °C

Next compound, please.
Inquiry: Could you tell me which melting point is on file for CC(C)(C)c1ccnc(C(=O)c2[nH]c3cc(Cl)ccc3c2CC(=O)O)c1 ?
Reply text: 203 to 205 °C

----------
Item-by-item account of melting point

These recorded examples may help you get a feel for the data.
• O=C(O)Cc1c(C(=O)c2cccs2)[nH]c2cc(Cl)ccc12 = 177 to 178 °C
• O=C(O)Cc1c(C(=O)c2cc(CO)ccn2)[nH]c2ccc(Cl)cc12 = 218 to 219 °C
• CCc1ccnc(C(=O)c2[nH]c3ccc(Cl)cc3c2CC(=O)O)c1F = 208 °C
• Cc1ccc(C(=O)c2[nH]c3ccc(Cl)cc3c2CC(=O)O)nc1 = 247 to 248 °C
• Cc1ccnc(C(=O)c2[nH]c3ccc(Cl)cc3c2CC(=O)NCCO)c1 = 195.9 °C

# ---- query compound ----
Inquiry: Reported melting point for Cc1cccc(C(=O)c2[nH]c3ccc(Cl)cc3c2CC(=O)O)n1 : what is it?
Reply text: 225 to 226 °C

----------
Reported melting point values are given for each entry in this list.

• O=C(O)Cc1c(C(=O)c2cccnc2)[nH]c2cc(Cl)ccc12 [Example 92] = 267 to 268 °C

Inquiry: For the molecule shown here, O=C(O)Cc1c(C(=O)c2cc(CO)ccn2)[nH]c2cc(Cl)ccc12 [Example 96] , give the reported melting point.
Reply text: 210 to 212 °C

Inquiry: // query melting point value for entry O=C(O)Cc1c(C(=O)c2ccc(Cl)cc2)[nH]c2cc(Cl)ccc12 [Example 9]
Reply text: 181 to 183 °C

----------
Where a name gives a salt, the structure may show the parent alone.
measure: melting point

Some solved entries appear below for comparison.
• O=C(O)Cc1c(C(=O)c2cc3ccccc3cn2)[nH]c2ccc(Cl)cc12 = 239 to 240 °C
• O=C(O)Cc1c(C(=O)c2cc3ccccc3cn2)[nH]c2cc(Cl)ccc12 = 236 to 237 °C
• CCc1ccnc(C(=O)c2[nH]c3ccc(Cl)cc3c2CC(=O)O)c1 = 217 to 218 °C
• Cc1cnc(C(=O)c2[nH]c3ccc(Cl)cc3c2CC(=O)O)s1 = 231 to 233 °C
• Cc1cc(C)nc(C(=O)c2[nH]c3ccc(Cl)cc3c2CC(=O)O)c1 = 233 to 235 °C
• Cc1nnsc1C(=O)c1[nH]c2cc(Cl)ccc2c1CC(=O)O = 215 to 216 °C

Inquiry: Dear colleague, I am looking for the recorded melting point of the following molecule: CCOC(=O)C=Cc1ccc(Cl)cc1N(CC(=O)c1ccc(Cl)cc1)S(=O)(=O)c1ccc(C)cc1
Reply text: 162 to 165 °C

Inquiry: Reported melting point for O=C(O)Cc1c(C(=O)c2ccc(Cl)cc2)[nH]c2cc(Cl)ccc12 (as salt: malonate) [Example 9] : what is it?
Reply text: 189 to 190 °C

Inquiry: Data request, read-out melting point, for CCOC(=O)C=Cc1ccc(Cl)cc1NS(=O)(=O)c1ccc(C)cc1
Reply text: 124 to 127 °C

Inquiry: Could you share which melting point value was measured for Cc1ccc(C(=O)c2[nH]c3cc(Cl)ccc3c2CC(=O)O)nc1 ?
Reply text: 235 to 238 °C

Inquiry: Quick one: melting point of Cc1nnsc1C(=O)c1[nH]c2ccc(Cl)cc2c1CC(=O)O ?
Reply text: 229 to 230 °C

Inquiry: I have this molecule here, CC(C)c1ccnc(C(=O)c2[nH]c3ccc(Cl)cc3c2CC(=O)O)c1 , and I need its recorded melting point.
Reply text: 227 to 228 °C

Inquiry: Consider the molecule CC(C)(C)c1ccnc(C(=O)c2[nH]c3ccc(Cl)cc3c2CC(=O)O)c1 and give its measured melting point.
Reply text: 209 to 211 °C

Inquiry: Param item = Cc1ccnc(C(=O)c2[nH]c3ccc(Cl)cc3c2CC(=O)O)c1C ; retrieve measured melting point.
Reply text: 236 to 237 °C

Inquiry: Could you share which melting point value was measured for Cc1cnc(C(=O)c2[nH]c3ccc(Cl)cc3c2CC(=O)O)cc1C ?
Reply text: 245 to 246 °C

Inquiry: I am curious: what melting point value has been reported for Cc1cnc(C(=O)c2[nH]c3cc(Cl)ccc3c2CC(=O)O)cc1C ?
Reply text: 226 to 228 °C
